Each recorded value in this set is attributed to patent US20260116991A1.

OD450 nm: recorded values
Molecular target: monkey GPC3-His protein (monkey)
Assay: ELISA, monkey GPC3-His coated; antibody 0.02 nM
Lab note: jot the number down without any unit.

get_value(item= hAb006LH3L1 (antibody, human IgG1, V domains shown) VH: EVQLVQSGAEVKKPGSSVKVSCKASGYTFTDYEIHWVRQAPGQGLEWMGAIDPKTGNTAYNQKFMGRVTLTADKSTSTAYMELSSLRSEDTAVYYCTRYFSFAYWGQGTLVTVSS VL: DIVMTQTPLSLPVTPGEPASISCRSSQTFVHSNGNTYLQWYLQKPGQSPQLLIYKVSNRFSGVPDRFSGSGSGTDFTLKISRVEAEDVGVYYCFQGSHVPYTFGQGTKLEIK , readout=OD450 nm) returns 0.911

Next:
get_value(item= hAb006LH1L1 (antibody, human IgG1, V domains shown) VH: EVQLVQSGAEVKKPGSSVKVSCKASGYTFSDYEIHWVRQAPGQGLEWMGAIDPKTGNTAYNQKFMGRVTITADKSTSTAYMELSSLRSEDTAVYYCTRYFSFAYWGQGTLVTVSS VL: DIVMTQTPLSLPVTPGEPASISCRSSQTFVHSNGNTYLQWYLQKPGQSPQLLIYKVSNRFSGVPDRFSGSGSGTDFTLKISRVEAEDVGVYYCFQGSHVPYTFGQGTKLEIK , readout=OD450 nm) returns 1.1

get_value(item= hAb005LH2L1 (antibody, human IgG1, V domains shown) VH: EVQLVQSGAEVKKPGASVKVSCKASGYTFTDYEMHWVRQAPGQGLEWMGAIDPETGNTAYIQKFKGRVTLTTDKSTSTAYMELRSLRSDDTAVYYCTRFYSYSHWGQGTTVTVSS VL: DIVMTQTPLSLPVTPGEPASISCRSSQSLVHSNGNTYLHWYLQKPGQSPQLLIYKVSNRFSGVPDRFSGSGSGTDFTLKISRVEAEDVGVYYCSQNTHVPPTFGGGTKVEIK , readout=OD450 nm) returns 0.649

get_value(item= hAb006LH2L1b (antibody, human IgG1, V domains shown) VH: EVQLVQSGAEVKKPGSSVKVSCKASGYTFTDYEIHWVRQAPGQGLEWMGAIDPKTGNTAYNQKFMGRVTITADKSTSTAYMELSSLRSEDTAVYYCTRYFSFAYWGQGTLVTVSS VL: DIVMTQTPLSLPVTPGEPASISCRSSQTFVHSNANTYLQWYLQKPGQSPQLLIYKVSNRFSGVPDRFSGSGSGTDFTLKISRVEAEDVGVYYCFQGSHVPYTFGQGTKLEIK , readout=OD450 nm) returns 0.924

get_value(item= hAb006LH3L1a (antibody, human IgG1, V domains shown) VH: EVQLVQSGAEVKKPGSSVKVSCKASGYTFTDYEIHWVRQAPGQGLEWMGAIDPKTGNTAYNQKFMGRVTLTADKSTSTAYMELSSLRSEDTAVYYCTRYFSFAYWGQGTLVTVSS VL: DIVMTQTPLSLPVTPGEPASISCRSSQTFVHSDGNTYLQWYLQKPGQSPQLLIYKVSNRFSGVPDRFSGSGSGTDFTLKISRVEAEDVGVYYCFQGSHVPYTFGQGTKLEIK , readout=OD450 nm) returns 0.08
